Molecular target: Shp (Streptococcus pyogenes, UniProt Q06A48, M66A)
Assay: biochemical
reported.metric: Kd
Be sure to follow the number with its unit.

Problem: // lookup Kd | system=Shp (Streptococcus pyogenes, UniProt Q06A48, M66A) | key= c1c[nH]cn1
Result: 210 µM
